Please go through the items and note down their MIC.
tested on: Klebsiella pneumoniae ATCC BAA-1705; assay: Inhibition of KPC-2 in Klebsiella pneumoniae ATCC BAA 1705 assessed as cefepime antibacterial activity at 8 ug/ml after 16 to 20 hrs by CLSI-based microbroth dilution method
Report as a plain number; the unit µg/mL is understood.

q: Param readout = MIC; param system = Klebsiella pneumoniae ATCC BAA-1705; param query = NCc1ccc(CC(=O)N[C@H]2Cc3cccc(C(=O)O)c3OB2O)cc1 ; response: value
a: 0.06

q: I'm curious: which MIC was measured for NC(=O)[C@@H]1CC[C@@H]2CN1C(=O)N2OS(=O)(=O)O tested on Klebsiella pneumoniae ATCC BAA-1705?
a: 0.06

q: // fetch Klebsiella pneumoniae ATCC BAA-1705 MIC for CC(=O)N[C@H]1Cc2cccc(C(=O)O)c2OB1O
a: 0.0079

q: API: value(readout=MIC, system=Klebsiella pneumoniae ATCC BAA-1705) for record NCCN[C@H]1CC[C@H](CC(=O)N[C@H]2Cc3cccc(C(=O)O)c3OB2O)CC1
a: 0.06

q: Tell me reported MIC for N[C@H]1CC[C@H](CC(=O)N[C@H]2Cc3cccc(C(=O)O)c3OB2O)CC1 , tested with Klebsiella pneumoniae ATCC BAA-1705.
a: 0.125
